Test System: IGF-1R (Homo sapiens)
Sequence (P08069 31-1367): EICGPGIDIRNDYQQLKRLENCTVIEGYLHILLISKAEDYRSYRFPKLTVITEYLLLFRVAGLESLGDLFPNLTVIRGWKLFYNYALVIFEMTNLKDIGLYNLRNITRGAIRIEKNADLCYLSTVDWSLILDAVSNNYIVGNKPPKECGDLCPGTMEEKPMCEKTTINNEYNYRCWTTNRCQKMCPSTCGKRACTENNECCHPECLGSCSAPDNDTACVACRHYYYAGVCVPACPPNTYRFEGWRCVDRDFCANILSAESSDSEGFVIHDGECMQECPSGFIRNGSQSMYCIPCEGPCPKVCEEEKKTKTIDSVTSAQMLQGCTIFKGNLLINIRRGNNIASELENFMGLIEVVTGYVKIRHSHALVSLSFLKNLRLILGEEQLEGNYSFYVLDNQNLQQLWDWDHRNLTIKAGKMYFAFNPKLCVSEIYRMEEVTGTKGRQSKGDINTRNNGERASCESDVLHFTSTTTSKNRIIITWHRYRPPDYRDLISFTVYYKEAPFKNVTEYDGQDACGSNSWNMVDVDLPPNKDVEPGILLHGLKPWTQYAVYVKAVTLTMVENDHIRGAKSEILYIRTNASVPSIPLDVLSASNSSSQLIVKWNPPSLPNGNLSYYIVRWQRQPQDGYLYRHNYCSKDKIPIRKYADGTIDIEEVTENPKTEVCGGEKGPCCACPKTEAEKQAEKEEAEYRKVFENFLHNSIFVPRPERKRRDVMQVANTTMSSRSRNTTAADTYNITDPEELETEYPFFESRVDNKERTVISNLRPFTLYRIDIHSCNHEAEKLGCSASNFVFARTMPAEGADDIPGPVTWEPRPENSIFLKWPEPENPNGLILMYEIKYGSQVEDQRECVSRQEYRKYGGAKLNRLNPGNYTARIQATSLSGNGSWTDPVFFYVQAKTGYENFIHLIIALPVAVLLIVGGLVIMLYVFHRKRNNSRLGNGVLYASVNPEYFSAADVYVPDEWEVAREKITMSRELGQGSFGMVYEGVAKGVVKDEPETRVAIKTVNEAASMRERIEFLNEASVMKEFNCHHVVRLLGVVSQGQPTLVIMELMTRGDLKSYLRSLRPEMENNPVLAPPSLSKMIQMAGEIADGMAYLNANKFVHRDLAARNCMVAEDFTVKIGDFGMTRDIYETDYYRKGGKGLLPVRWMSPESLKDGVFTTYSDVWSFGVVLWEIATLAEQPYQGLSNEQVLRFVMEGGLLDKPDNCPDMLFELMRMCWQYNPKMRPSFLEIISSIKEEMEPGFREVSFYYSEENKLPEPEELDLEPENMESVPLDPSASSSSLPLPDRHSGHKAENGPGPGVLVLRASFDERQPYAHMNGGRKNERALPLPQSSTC
Test Details: IGF-1R phosphorylation in various malignant cell types (EC50)
Type: cell-based
Parameters: endogenous in cells; host or cells: 12 malignant cell lines (e.g. SK-MEL-2, SK-MEL-5, SK-MEL-28)
Run Conditions: RD-ES Ewing's sarcoma, 1 h
Metric Name: EC50 (nM)
# number only, unit nM dropped from output

query: Can you look up EC50 on IGF-1R (Homo sapiens) for COc1cc([C@@H]2c3cc4c(cc3[C@H](O)[C@H]3COC(=O)[C@H]23)OCO4)cc(OC)c1OC [Podophyllotoxin, podophyllotoxin] ?
result: 30

query: Can you look up EC50 on IGF-1R (Homo sapiens) for COc1cc([C@@H]2c3cc4c(cc3[C@H](O)[C@H]3COC(=O)[C@@H]23)OCO4)cc(OC)c1OC [Picropodophyllin, picropodophyllin] ?
result: 50

---

Test System: IGF-1R (Homo sapiens)
Test Details: Tyrosine phosphorylation of IGF-1R in intact FM55 melanoma cells
Type: cell-based
Parameters: endogenous in cells
Run Conditions: FM55 melanoma cells, 0.05 μM, 1 h, means of 3 experiments
Metric Name: Level of IGF-1R phosphorylation in intact cells (% OD)
# number only, unit % OD dropped from output

query: Can you look up Level of IGF-1R phosphorylation in intact cells on IGF-1R (Homo sapiens) for COc1cc([C@@H]2c3cc4c(cc3[C@H](O)[C@H]3COC(=O)[C@H]23)OCO4)cc(OC)c1OC [Podophyllotoxin, podophyllotoxin] ?
result: 5

query: Can you look up Level of IGF-1R phosphorylation in intact cells on IGF-1R (Homo sapiens) for COc1cc([C@@H]2c3cc4c(cc3[C@H](O)[C@H]3COC(=O)[C@@H]23)OCO4)cc(OC)c1OC [Picropodophyllin, picropodophyllin] ?
result: 8

query: Can you look up Level of IGF-1R phosphorylation in intact cells on IGF-1R (Homo sapiens) for COc1cc([C@@H]2c3cc4c(cc3C[C@H]3COC(=O)[C@@H]32)OCO4)cc(OC)c1OC [Deoxypodophyllotoxin, deoxypodophyllotoxin] ?
result: 2

query: Can you look up Level of IGF-1R phosphorylation in intact cells on IGF-1R (Homo sapiens) for COc1cc([C@@H]2c3cc4c(cc3[C@@H](O[C@@H]3O[C@@H]5CO[C@@H](C)O[C@H]5[C@H](O)[C@H]3O)[C@H]3COC(=O)[C@H]23)OCO4)cc(OC)c1O [Etoposide] ?
result: 102

query: Can you look up Level of IGF-1R phosphorylation in intact cells on IGF-1R (Homo sapiens) for COc1cc(C2c3cc4c(cc3C(OC3OC5COC(c6ccccc6)OC5C(O)C3O)C3COC(=O)C23)OCO4)cc(OC)c1OC (stereo not drawn) [Pf-4,6-O] ?
result: 100

query: Can you look up Level of IGF-1R phosphorylation in intact cells on IGF-1R (Homo sapiens) for COc1cc([C@@H]2c3cc4c(cc3C[C@H]3COC(=O)[C@H]32)OCO4)cc(OC)c1OC [Deoxypicropodophyllin, deoxypicropodophyllin] ?
result: 5

---

Test System: UniProt P08069
Test Details: IGF-1R phosphorylation in various malignant cell types (EC50)
Format: cell-based
Design: endogenous in cells; host or cells: 12 malignant cell lines (e.g. SK-MEL-2, SK-MEL-5, SK-MEL-28)
Run Conditions: SK-MEL-5 melanoma, 1 h
Would you kindly list EC50 for each of these molecules?

query: Consider the molecule COc1cc([C@@H]2c3cc4c(cc3[C@H](O)[C@H]3COC(=O)[C@@H]23)OCO4)cc(OC)c1OC [Picropodophyllin, picropodophyllin] and give its measured EC50.
result: 40 nM

query: Consider the molecule COc1cc([C@@H]2c3cc4c(cc3[C@H](O)[C@H]3COC(=O)[C@H]23)OCO4)cc(OC)c1OC [Podophyllotoxin, podophyllotoxin] and give its measured EC50.
result: 30 nM
